I'd be grateful if you could share measured logP for these entries.
# Protocol Details: Lipophilicity, log P of the compound
# Assay type: physicochemical
# Condition Label: octanol/water
Answers are plain numbers.

Solved entries (count: 2):
OC[C@H]1O[C@@H](Sc2c(F)c(F)c(-c3c4nc(c(-c5c(F)c(F)c(S[C@@H]6O[C@H](CO)[C@@H](O)[C@H](O)[C@H]6O)c(F)c5F)c5ccc([nH]5)c(-c5c(F)c(F)c(F)c(F)c5F)c5nc(c(-c6c(F)c(F)c(F)c(F)c6F)c6ccc3[nH]6)C=C5)C=C4)c(F)c2F)[C@H](O)[C@@H](O)[C@@H]1O :: 3.98
OC[C@H]1O[C@@H](Sc2c(F)c(F)c(-c3c4nc(c(-c5c(F)c(F)c(F)c(F)c5F)c5ccc([nH]5)c(-c5c(F)c(F)c(F)c(F)c5F)c5nc(c(-c6c(F)c(F)c(F)c(F)c6F)c6ccc3[nH]6)C=C5)C=C4)c(F)c2F)[C@H](O)[C@@H](O)[C@@H]1O :: 5.11

I'd like to know its logP. The compound in question is OC[C@H]1O[C@@H](Sc2c(F)c(F)c(-c3c4nc(c(-c5c(F)c(F)c(S[C@@H]6O[C@H](CO)[C@@H](O)[C@H](O)[C@H]6O)c(F)c5F)c5ccc([nH]5)c(-c5c(F)c(F)c(S[C@@H]6O[C@H](CO)[C@@H](O)[C@H](O)[C@H]6O)c(F)c5F)c5nc(c(-c6c(F)c(F)c(S[C@@H]7O[C@H](CO)[C@@H](O)[C@H](O)[C@H]7O)c(F)c6F)c6ccc3[nH]6)C=C5)C=C4)c(F)c2F)[C@H](O)[C@@H](O)[C@@H]1O
0.75
